experiment: Kinetic solubility of the compound; assay type: physicochemical; conditions: read-out: Kinetic_solubility
outcome.measure: solubility kinetic (µM)
Return type: number; implicit unit µM.

query: Requested read-out: solubility kinetic. Entry: "N[C@H]1CC[C@H](CNc2nccc(Nc3cc(C4CC4)[nH]n3)n2)CC1"
result: 149

###

target: Serine/threonine-protein kinase PAK 4 (Homo sapiens); experiment: Inhibition of human recombinant PAK4 kinase domain using coumarin/fluorescein-labeled FRET peptide as substrate assessed as substrate phosphorylation at Ser/Thr19 preincubated for 10 mins followed by ATP addition measured after 60 mins by Z'-LYTE assay
Sequence (O96013 whole entry, the tested form may be a part): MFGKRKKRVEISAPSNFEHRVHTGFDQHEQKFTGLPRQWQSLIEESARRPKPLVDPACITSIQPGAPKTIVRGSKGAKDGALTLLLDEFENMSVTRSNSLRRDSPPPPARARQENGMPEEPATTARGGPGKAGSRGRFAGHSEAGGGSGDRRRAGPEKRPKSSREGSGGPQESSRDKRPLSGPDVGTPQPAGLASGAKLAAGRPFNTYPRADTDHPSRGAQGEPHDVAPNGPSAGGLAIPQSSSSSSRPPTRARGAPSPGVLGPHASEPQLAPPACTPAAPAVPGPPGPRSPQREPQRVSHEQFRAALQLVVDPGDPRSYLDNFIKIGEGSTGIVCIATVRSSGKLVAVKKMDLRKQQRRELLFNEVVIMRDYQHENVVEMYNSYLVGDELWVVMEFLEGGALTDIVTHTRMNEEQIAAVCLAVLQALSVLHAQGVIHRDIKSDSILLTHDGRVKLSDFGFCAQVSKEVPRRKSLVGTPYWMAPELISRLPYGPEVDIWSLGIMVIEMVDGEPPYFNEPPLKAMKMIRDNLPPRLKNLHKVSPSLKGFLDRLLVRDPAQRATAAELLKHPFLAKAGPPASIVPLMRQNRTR
pKi: −log10 of the molar value.
The label depends only on pKi: 1.0 if it is at least 7, 0.0 if it is smaller.

query: Evaluate "c1cc(Nc2cc(C3CC3)[nH]n2)nc(NCc2ccc3[nH]cnc3c2)n1" : pKi at minimum 7?
result: 0.0

query: Evaluate "NC1CCN(c2cc(Nc3cc(C4CC4)[nH]n3)ccn2)CC1" : pKi at minimum 7?
result: 0.0

query: Evaluate "Cn1cnc2ccc(CNc3nccc(Nc4cc(C5CC5)[nH]n4)n3)cc21" : pKi at minimum 7?
result: 0.0

query: Evaluate "Cn1cnc2cc(CNc3nccc(Nc4cc(C5CC5)[nH]n4)n3)ccc21" : pKi at minimum 7?
result: 0.0

query: Evaluate "N[C@H]1CC[C@@H](CNc2nccc(Nc3cc(C4CC4)[nH]n3)n2)CC1" : pKi at minimum 7?
result: 1.0

query: Evaluate "Clc1c(CNc2nccc(Nc3cc(C4CC4)[nH]n3)n2)ccc2[nH]cnc12" : pKi at minimum 7?
result: 0.0

query: Evaluate "CNc1ccc(CNc2nccc(Nc3cc(C4CC4)[nH]n3)n2)cn1" : pKi at minimum 7?
result: 0.0

query: Evaluate "Nc1ccc(CNc2nccc(Nc3cc(C4CC4)[nH]n3)n2)cn1" : pKi at minimum 7?
result: 0.0

query: Evaluate "NC1CCN(c2nc(Nc3cc(C4CC4)[nH]n3)c3occc3n2)CC1" : pKi at minimum 7?
result: 1.0

query: Evaluate "CCN(Cc1ccc2[nH]cnc2c1Cl)c1nccc(Nc2cc(C3CC3)[nH]n2)n1" : pKi at minimum 7?
result: 0.0

query: Evaluate "CN(C)c1ccc(CNc2nccc(Nc3cc(C4CC4)[nH]n3)n2)cn1" : pKi at minimum 7?
result: 0.0

query: Evaluate "NC1CCN(c2nccc(Nc3cc(C4CC4)[nH]n3)n2)CC1" : pKi at minimum 7?
result: 0.0

query: Evaluate "N[C@H]1CC[C@H](CNc2nccc(Nc3cc(C4CC4)[nH]n3)n2)CC1" : pKi at minimum 7?
result: 1.0

query: Evaluate "NC1CCN(c2nc(Nc3cc(C4CC4)[nH]n3)c3sccc3n2)CC1" : pKi at minimum 7?
result: 1.0

query: Evaluate "C[C@H](Nc1nccc(Nc2cc(C3CC3)[nH]n2)n1)c1ccc2[nH]ccc2c1" : pKi at minimum 7?
result: 1.0

query: Evaluate "Fc1c(CNc2nccc(Nc3cc(C4CC4)[nH]n3)n2)ccc2[nH]cnc12" : pKi at minimum 7?
result: 0.0

query: Evaluate "NC1CCN(c2cccc(Nc3cc(C4CC4)[nH]n3)n2)CC1" : pKi at minimum 7?
result: 0.0

###

Consider the following compounds; for each one, report its Papp A→B.
experiment: Apparent permeability across apical to basolateral side in MDCK cells; assay type: ADME, cell-based, Canis lupus familiaris; conditions: dog
Return type: number; implicit unit ×10⁻⁶ cm/s.

query: Requested read-out: Papp A→B. Entry: "C[C@H](Nc1nccc(Nc2cc(C3CC3)[nH]n2)n1)c1ccc2[nH]cnc2c1"
result: 0.9

query: Requested read-out: Papp A→B. Entry: "N[C@H]1CC[C@H](CNc2nccc(Nc3cc(C4CC4)[nH]n3)n2)CC1"
result: 0.5

query: Requested read-out: Papp A→B. Entry: "CCN(Cc1ccc2[nH]cnc2c1Cl)c1nccc(Nc2cc(C3CC3)[nH]n2)n1"
result: 7.4

query: Requested read-out: Papp A→B. Entry: "Clc1c(CNc2nccc(Nc3cc(C4CC4)[nH]n3)n2)ccc2[nH]cnc12"
result: 2.8

query: Requested read-out: Papp A→B. Entry: "CN(Cc1ccc2[nH]cnc2c1Cl)c1nccc(Nc2cc(C3CC3)[nH]n2)n1"
result: 1.9

###

molecular target: Serine/threonine-protein kinase PAK 1 (Homo sapiens, UniProt Q13153); experiment: Inhibition of human recombinant PAK1 kinase domain using coumarin/fluorescein-labeled FRET peptide as substrate assessed as substrate phosphorylation at Ser/Thr19 preincubated for 10 mins followed by ATP addition measured after 60 mins by Z'-LYTE assay
Sequence (Q13153 whole entry, the tested form may be a part): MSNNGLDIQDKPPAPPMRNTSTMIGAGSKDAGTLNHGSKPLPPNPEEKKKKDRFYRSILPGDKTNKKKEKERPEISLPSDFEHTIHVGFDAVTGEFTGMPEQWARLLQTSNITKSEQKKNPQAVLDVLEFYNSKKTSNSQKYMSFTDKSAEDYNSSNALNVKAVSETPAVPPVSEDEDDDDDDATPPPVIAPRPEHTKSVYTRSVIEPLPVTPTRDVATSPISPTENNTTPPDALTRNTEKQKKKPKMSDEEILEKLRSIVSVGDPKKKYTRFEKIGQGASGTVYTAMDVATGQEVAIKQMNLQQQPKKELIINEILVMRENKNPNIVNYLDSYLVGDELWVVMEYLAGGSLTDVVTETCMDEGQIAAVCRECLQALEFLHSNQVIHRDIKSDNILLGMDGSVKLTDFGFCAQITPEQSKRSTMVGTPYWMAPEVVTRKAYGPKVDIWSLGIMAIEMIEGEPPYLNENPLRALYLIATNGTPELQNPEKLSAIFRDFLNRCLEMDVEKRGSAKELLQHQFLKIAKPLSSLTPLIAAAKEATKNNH
outcome.measure: pKi
In simple prose, pKi is minus the logarithm base ten of a concentration in moles per litre.

query: Requested read-out: pKi. Entry: "CCc1cc(Nc2nc(N3CCC(N)CC3)nc3ccsc23)n[nH]1"
result: 7.48

query: Requested read-out: pKi. Entry: "c1cc(Nc2cc(C3CC3)[nH]n2)nc(NCc2ccc3[nH]cnc3c2)n1"
result: 6.93

query: Requested read-out: pKi. Entry: "CN(Cc1ccc2[nH]cnc2c1Cl)c1nccc(Nc2cc(C3CC3)[nH]n2)n1"
result: 8.40

query: Requested read-out: pKi. Entry: "c1cc(Nc2cc(C3CC3)[nH]n2)nc(NCc2ccc3[nH]ccc3c2)n1"
result: 7.57

query: Requested read-out: pKi. Entry: "N[C@H]1CC[C@H](Nc2nccc(Nc3cc(C4CC4)[nH]n3)n2)CC1"
result: 6.80

###

Consider the following compounds; for each one, report its pKi.
target: Serine/threonine-protein kinase PAK 1 (Homo sapiens, UniProt Q13153); assay: Inhibition of human recombinant PAK1 kinase domain using coumarin/fluorescein-labeled FRET peptide as substrate assessed as substrate phosphorylation at Ser/Thr19 preincubated for 10 mins followed by ATP addition measured after 60 mins by Z'-LYTE assay
In simple prose, pKi is minus the logarithm base ten of a concentration in moles per litre.

query: Requested read-out: pKi. Entry: "C[C@H](Nc1nccc(Nc2cc(C3CC3)[nH]n2)n1)c1ccc2[nH]ccc2c1"
result: 7.51

query: Requested read-out: pKi. Entry: "Cn1cnc2cc(CNc3nccc(Nc4cc(C5CC5)[nH]n4)n3)ccc21"
result: 6.22

query: Requested read-out: pKi. Entry: "Cc1cc(Nc2nc(N3CCC(N)CC3)nc3ccsc23)n[nH]1"
result: 6.75

query: Requested read-out: pKi. Entry: "c1cc(Nc2cc(C3CC3)[nH]n2)nc(NCC2CCNCC2)n1"
result: 6.61

query: Requested read-out: pKi. Entry: "Fc1c(CNc2nccc(Nc3cc(C4CC4)[nH]n3)n2)ccc2[nH]cnc12"
result: 6.75

query: Requested read-out: pKi. Entry: "CCN(Cc1ccc2[nH]cnc2c1Cl)c1nccc(Nc2cc(C3CC3)[nH]n2)n1"
result: 8.30

query: Requested read-out: pKi. Entry: "NC1CCN(c2nc(Nc3cc(-c4ccccc4)[nH]n3)c3sccc3n2)CC1"
result: 6.18

query: Requested read-out: pKi. Entry: "NC1CCN(c2nc(Nc3cc(C4CC4)[nH]n3)c3sccc3n2)CC1"
result: 7.66

query: Requested read-out: pKi. Entry: "N[C@H]1CC[C@H](CNc2nccc(Nc3cc(C4CC4)[nH]n3)n2)CC1"
result: 7.59

query: Requested read-out: pKi. Entry: "NC1CCN(c2nccc(Nc3cc(C4CC4)[nH]n3)n2)CC1"
result: 6.34

query: Requested read-out: pKi. Entry: "CC(C)c1cc(Nc2nc(N3CCC(N)CC3)nc3ccsc23)n[nH]1"
result: 7.48

query: Requested read-out: pKi. Entry: "NC1CCN(c2nc(Nc3cc(C4CCC4)[nH]n3)c3sccc3n2)CC1"
result: 7.74

query: Requested read-out: pKi. Entry: "CNc1ccc(CNc2nccc(Nc3cc(C4CC4)[nH]n3)n2)cn1"
result: 6.46

query: Requested read-out: pKi. Entry: "CN(C)c1ccc(CNc2nccc(Nc3cc(C4CC4)[nH]n3)n2)cn1"
result: 5.83

###

assay: Apparent permeability across basolateral to apical side in MDCK cells; type: ADME, cell-based, Canis lupus familiaris; conditions: dog
Consider the following molecules; for each one, report its Papp B→A.
Return type: number; implicit unit ×10⁻⁶ cm/s.

query: Requested read-out: Papp B→A. Entry: "C[C@H](Nc1nccc(Nc2cc(C3CC3)[nH]n2)n1)c1ccc2[nH]cnc2c1"
result: 6.8

query: Requested read-out: Papp B→A. Entry: "N[C@H]1CC[C@H](CNc2nccc(Nc3cc(C4CC4)[nH]n3)n2)CC1"
result: 2

query: Requested read-out: Papp B→A. Entry: "CN(Cc1ccc2[nH]cnc2c1Cl)c1nccc(Nc2cc(C3CC3)[nH]n2)n1"
result: 18

query: Requested read-out: Papp B→A. Entry: "CCN(Cc1ccc2[nH]cnc2c1Cl)c1nccc(Nc2cc(C3CC3)[nH]n2)n1"
result: 11.1

query: Requested read-out: Papp B→A. Entry: "Clc1c(CNc2nccc(Nc3cc(C4CC4)[nH]n3)n2)ccc2[nH]cnc12"
result: 6.3
